- method notes: NCI Yeast Anticancer Drug Screen. Data for the mlh1 rad18 strain (AID 175)
- recorded conditions: S. cerevisiae mlh1 rad18 strain growth inhibition, active compounds read high; at 50.0 µM unless noted
The panel holds about 79,000 compounds, 15% with a hit somewhere; the sample as a whole holds those more often.
growth inhibition values by entry
parameter: growth inhibition (%)

{"molecule": "COC(=O)N/N=C(/CCCC(=O)Nc1cccc([N+](=O)[O-])c1)C(C#N)c1ccc(CC#N)cc1 (centres undefined)", "parameter": "growth inhibition", "numeric readout": -3.3}
{"molecule": "CCCCCCC(=O)C/C(=N/NC(N)=S)C(=O)NC1C2CC3CC(C2)CC1C3 (centres undefined)", "parameter": "growth inhibition", "numeric readout": -34.5}
{"molecule": "CS/C(C)=N/OC(=O)NCCCCNc1ccc(N=[N+]=[N-])cc1", "parameter": "growth inhibition", "numeric readout": 0.6}
{"molecule": "OCC1=CC(O)C2C=COC(OC3OC(CO)C(O)C(O)C3O)C12 (centres undefined)", "parameter": "growth inhibition", "numeric readout": -31.1}
{"molecule": "CC(C)(Br)C(Br)CCC(C)(Br)C(Br)CO (centres undefined)", "parameter": "growth inhibition", "numeric readout": -1.3}
{"molecule": "CCCc1onc(-c2noc(CCC)c2CC)c1CC", "parameter": "growth inhibition", "numeric readout": 15.7}
{"molecule": "Cc1ccccc1C(=O)NCC(=O)O", "parameter": "growth inhibition", "numeric readout": 12.3}
{"molecule": "Cc1nc2c(N)n[nH]c(=O)n2n1", "parameter": "growth inhibition", "numeric readout": -4.7}
{"molecule": "O=c1oc2ccccc2c(O)c1Cc1ccccc1Cc1c(O)c2ccccc2oc1=O", "parameter": "growth inhibition", "numeric readout": 65}
{"molecule": "Cc1cc2c(C)nn(Cc3ccccc3)c2c(C(N)=O)c1C", "parameter": "growth inhibition", "numeric readout": 51.4}
{"molecule": "CSc1nc(C)cc(Nc2ccc(O)c(CN3CCCCC3)c2)n1", "parameter": "growth inhibition", "numeric readout": 2.6}
{"molecule": "COc1cc(OC)c(-c2cc(=O)c3c(OC)c(OC)c(OC)c(OC)c3o2)cc1OC", "parameter": "growth inhibition", "numeric readout": -21.1}
{"molecule": "O=Cc1ccc(N2CCOCC2)cc1", "parameter": "growth inhibition", "numeric readout": 1.95}
{"molecule": "CCCCCCCCOC(=O)Nc1ccc(S(=O)(=O)NC2CCCCC2)cc1", "parameter": "growth inhibition", "numeric readout": 20.6}

###

- method notes: NCI Yeast Anticancer Drug Screen. Data for the mec2-1 strain (AID 157)
- recorded conditions: S. cerevisiae mec2-1 strain; at 50.0 µM unless noted
About 79,000 compounds went through this panel and 15% of them were active in at least one assay; those are over-represented in the sample as a whole. Calls of active or inactive are those of the source. Rule as the data show it: active = growth inhibition above about 70%; inactive = the rest. Where a SMILES comes first, the peptide text is derived from it.
Classes used: active, inactive

{"compound": "CNC(=O)CNC(=O)C(NC(=O)CNC(=O)C1CCCN1C(=O)C(C)NC(=O)C(NC(C)=O)C(C)C)C(C)C (stereo unspecified) (Ac-VAPGVG-NHMe; configuration not given here)", "classification": "inactive"}
{"compound": "NC(=O)CSCC(N)=O", "classification": "inactive"}
{"compound": "CCC(C)(CC=C(C)C)c1ccncc1 (stereo unspecified)", "classification": "inactive"}
{"compound": "CCC/C(=N\\NC(=S)N1CCN(c2ccccn2)CC1)c1ccccn1", "classification": "active"}
{"compound": "ClCc1ccccc1C(c1ccccc1)c1ccccc1", "classification": "inactive"}
{"compound": "O=C(O)C(=O)c1c(O)[nH]c2ccccc12", "classification": "inactive"}

###

- method notes: NCI Yeast Anticancer Drug Screen. Data for the cln2 rad14 strain (AID 165);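 note: 0% = growth equal to vehicle treated cultures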
- recorded conditions: S. cerevisiae cln2 rad14 strain; at 50.0 µM unless noted
Compounds without any hit were thinned out: in the full panel of roughly 79,000, 15% have a hit. Activity calls are given as the source filed them. Rule as the data show it: active = growth inhibition above about 70%; inactive = the rest. Where a SMILES comes first, the peptide text is derived from it. [ ]: non-standard residue; d: D form. The star is where a group is joined. Cbz = O=C(OCc1ccccc1)*; Nva = CCC[CH](N)C(=O)O
Outcome codes: label 1 for active, label 0 for inactive

{"compound": "CCCC(NC(=O)OCc1ccccc1)C(=O)NC(CC(C)C)C(N)=O (stereo unspecified) (Cbz-[Nva]-Leu-NH2; configuration not given here)", "classification": "label 0"}
{"compound": "c1ccc(CC2=NCCO2)cc1", "classification": "label 0"}
{"compound": "N#Cc1c(C(F)(F)F)cc(-c2cccs2)nc1SC(C(=O)Nc1cc(C(F)(F)F)cc(C(F)(F)F)c1)c1ccccc1 (stereo unspecified)", "classification": "label 0"}
{"compound": "CCOC(=O)c1cc(C)ncc1N", "classification": "label 0"}
{"compound": "CC(C)C1CO[C@]2(C)CCC(=O)N12 (stereo partly specified)", "classification": "label 0"}
{"compound": "COCC(Br)C(OC)OC (stereo unspecified)", "classification": "label 0"}
{"compound": "OC(CN1CCCCC1)c1cc(-c2ccccc2)no1 (stereo unspecified)", "classification": "label 0"}
{"compound": "C/C(N)=N\\O", "classification": "label 0"}
{"compound": "c1ccc2c(c1)ccc1c[n+]3ccccc3cc12", "classification": "label 0"}
{"compound": "COc1ccccc1/C=C\\C#N", "classification": "label 0"}
{"compound": "O=C(Nc1ccc(S(=O)(=O)Nc2nccs2)cc1)c1ccncc1", "classification": "label 0"}
{"compound": "CCOC(=O)CN(Cn1cncn1)Cn1cncn1", "classification": "label 0"}
{"compound": "CC1(C)COC2(CCCCC2)OC1", "classification": "label 0"}
{"compound": "O=C(Nc1ccc(Cl)cc1[N+](=O)[O-])Oc1ccc(C2CCCCC2)cc1", "classification": "label 1"}
{"compound": "O=C1c2c(Br)sc(Br)c2C(NC(=O)C(F)(F)F)C1O (stereo unspecified)", "classification": "label 0"}
{"compound": "O=C(C[n+]1cc(Br)cc2ccccc21)c1ccc(F)cc1", "classification": "label 0"}
{"compound": "CCCCCCSC(=O)NC(C)=O", "classification": "label 0"}
{"compound": "O=[N+]([O-])c1cnccc1/C=C\\c1ccccc1", "classification": "label 0"}
{"compound": "O=C(Oc1cccc(OC(=O)c2ccccc2O)c1)c1ccccc1O", "classification": "label 0"}
{"compound": "O=C1CCCNC(=O)N1", "classification": "label 0"}
{"compound": "CC(CO)Cc1ccccc1 (stereo unspecified)", "classification": "label 0"}
{"compound": "CCO/C([O-])=N\\[n+]1c(C)nc2cc3c(cc2c1C)OCO3", "classification": "label 0"}
{"compound": "COc1ccc(/C=N/N2CN(C(C)C(=O)O)B(NCCC(C)C)N=C2N)cc1OC (stereo unspecified)", "classification": "label 0"}
{"compound": "NC(Cc1ccc2nc3c4ccccc4c(=O)cc-3oc2c1)C(=O)O (stereo unspecified)", "classification": "label 0"}
{"compound": "CCCC(=O)CC(=O)C(F)(F)F.CCCC(=O)CC(=O)C(F)(F)F.CCCC(=O)CC(=O)C(F)(F)F.[Er]", "classification": "label 0"}
{"compound": "N#CC(C#N)=C1SC(=Nc2ccccc2)C(=Nc2ccccc2)N1c1ccccc1", "classification": "label 0"}
{"compound": "CCS(=O)(=O)c1ccc(NC(=O)OC2CCC3(C)C(=CCC4C3CCC3(C)C(C(C)CCCC(C)C)CCC43)C2)cc1 (stereo unspecified)", "classification": "label 0"}
{"compound": "CCN(CC)CCCC(C)NCC1C(O)CCC2CN3CCc4c([nH]c5ccccc45)C3CC21 (stereo unspecified)", "classification": "label 0"}
{"compound": "COc1ccc(Br)cc1C1OC(=O)c2c(OC)c(OC)cc([N+](=O)[O-])c21 (stereo unspecified)", "classification": "label 0"}
{"compound": "CCCC1SCC(=O)N1c1nncs1 (stereo unspecified)", "classification": "label 0"}
{"compound": "COC1OC(CO)C(O)C1OS(C)(=O)=O (stereo unspecified)", "classification": "label 0"}
{"compound": "NC(=O)C(=Cn1c(=S)[nH]c2ccc([N+](=O)[O-])cc21)C(N)=O", "classification": "label 0"}
{"compound": "CC(Br)C(=O)NC(CC(N)=O)C(=O)O (stereo unspecified)", "classification": "label 0"}
{"compound": "C[N+]1(CCN[N+]2(C)CCCCC2)CCc2ccccc2C1 (stereo unspecified)", "classification": "label 0"}
{"compound": "Clc1ccc2[nH]c3c(c2c1)CCCC3", "classification": "label 0"}
{"compound": "O=C(c1ccccc1)c1ccc2c(Cl)ccc3c2c1CC3", "classification": "label 0"}
